Data provenance: patent US20240158446A1

Recorded Kd for the following molecules
assayed_target: UniProt:P01116
assay_details: Binding to KRAS by surface plasmon resonance (SPR), Single Cycle Kinetics
details: SPR, Single Cycle Kinetics, 1:1 binding model; GDP-bound KRAS wild-type protein; read-out: KRAS KD
Answer with a number only, understood to be in pM.

[
  {
    "molecule": "CCCOC[C@H]1C(=O)N[C@@H]([C@@H](C)CC)C(=O)N(C)CC(=O)N(C)[C@H]2C/C=C\\CCN(C2=O)[C@@H](Cc2ccc(C(F)(F)F)cc2)C(=O)N(C)CC(=O)N[C@@H](CCc2cc(F)c(C(F)(F)F)c(F)c2)C(=O)N2C[C@H](OCC)C[C@H]2C(=O)NC2(CCC2)C(=O)N(C)[C@@H](C2CCCC2)C(=O)N(C)[C@H](C(=O)N(C)CC)CC(=O)N1C",
    "meas_value": 110
  },
  {
    "molecule": "CCO[C@@H]1C[C@H]2C(=O)NC3(CCC3)C(=O)N(C)[C@@H](C(CC)CC)C(=O)N(C)[C@H](C(=O)N3CCCC3)CC(=O)N(C)[C@@H](COC)C(=O)N[C@@H]([C@@H](C)CC)C(=O)N(C)CC(=O)N(C)[C@H]3C/C=C\\CCN(C3=O)[C@@H](CC3CCC(F)(F)CC3)C(=O)N(C)CC(=O)N[C@@H](CCc3cc(F)c(C(F)(F)F)c(F)c3)C(=O)N2C1",
    "meas_value": 350
  },
  {
    "molecule": "CC[C@H](C)[C@@H]1NC(=O)[C@H](CC(C)C)N(C)C(=O)C[C@@H](C(=O)N2CCOCC2)N(C)C(=O)[C@H](C2CCCC2)N(C)C(=O)C2(CCC2)NC(=O)[C@@H]2CCCN2C(=O)[C@H](CCc2ccc(C(F)(F)F)c(Cl)c2)NC(=O)CN(C)C(=O)[C@H](Cc2ccc(C(F)(F)F)cc2)N2C[C@H](C)CC[C@@H](C2=O)N(C)C(=O)[C@@H]2CCN2C1=O (stereo in doubt)",
    "meas_value": 650
  },
  {
    "molecule": "CCO[C@@H]1C[C@H]2C(=O)NC3(CCCC3)C(=O)N(C)[C@@H](C3CCCC3)C(=O)N(C)[C@H](C(=O)N3CCOCC3)CC(=O)N(C)[C@@H](CC)C(=O)N[C@@H]([C@@H](C)CC)C(=O)N(C)CC(=O)N(C)[C@H]3C[C@@H](C)[C@@H](C)CN(C3=O)[C@@H](Cc3ccc(C(F)(F)F)cc3)C(=O)N(C)CC(=O)N[C@@H](CCc3cc(F)c(C(F)(F)F)c(F)c3)C(=O)N2C1",
    "meas_value": 100
  },
  {
    "molecule": "CCO[C@@H]1C[C@H]2C(=O)NC3(CCCC3)C(=O)N(C)[C@@H](C3CCCC3)C(=O)N(C)[C@H](C(=O)N3CCOCC3)CC(=O)N(C)[C@@H](CC)C(=O)N[C@@H]([C@@H](C)CC)C(=O)N(C)CC(=O)N(C)[C@H]3C[C@@H](C)[C@@H](C)CN(C3=O)[C@@H](Cc3ccc(C(F)(F)F)cc3)C(=O)N(C)CC(=O)N[C@@H](CCc3ccc(C(F)(F)F)c(Cl)c3)C(=O)N2C1",
    "meas_value": 68
  }
]

Attention now shifts to the item below.
Entry CCO[C@@H]1C[C@H]2C(=O)NC3(CCC3)C(=O)N(C)[C@@H](C(CC)CC)C(=O)N(C)C(C(C)C)CC(=O)N(C)[C@@H](CC)C(=O)N[C@@H]([C@@H](C)CC)C(=O)N(C)CC(=O)N(C)[C@H]3C/C=C\CCN(C3=O)[C@@H](Cc3ccc(C(F)(F)F)cc3)C(=O)N(C)CC(=O)N[C@@H](CCc3cc(F)c(C(F)(F)F)c(F)c3)C(=O)N2C1 (stereo partly drawn) has what Kd? 1800

----------
assayed_target: GDP-bound KRAS wild-type protein (Homo sapiens, UniProt P01116)
Sequence (P01116 whole entry): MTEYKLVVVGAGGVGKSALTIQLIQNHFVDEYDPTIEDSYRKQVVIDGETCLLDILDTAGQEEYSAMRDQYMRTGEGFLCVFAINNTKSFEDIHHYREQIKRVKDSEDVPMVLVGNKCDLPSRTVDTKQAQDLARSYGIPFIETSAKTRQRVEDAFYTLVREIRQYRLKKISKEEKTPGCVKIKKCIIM
assay_details: Binding to KRAS by surface plasmon resonance (SPR), Single Cycle Kinetics
details: SPR Single Cycle Kinetics, GDP-bound KRAS wild-type protein, 1:1 binding model; read-out: KRAS KD
*1 amine or outer side, *2 acyl side, *3 side chain or, on linkers, in order; H or OH if unused. Where a SMILES comes first, the peptide text is derived from it. Bridges are numbered along the chain shown (N, C = ends). [ ]: non-standard residue; d: D form. The star is where a group is joined. hPhe(3-Cl-4-CF3) = N[C@@H](CCc1ccc(C(F)(F)F)c(Cl)c1)C(=O)O; NPrPhe(4-CF3) = CCCN[C@@H](Cc1ccc(C(F)(F)F)cc1)C(=O)O; X18 = Cc1ccc(C[C@@H](C(=O)[*:2])N(CC(C)C)[*:1])cc1; X30 = C=CCCN([C@@H](Cc1ccc(C)cc1)C(=O)[*:2])[*:1]; Morpholine(3S-CO) = O=C(O)[C@@H]1COCCN1; NMeGly(cPent) = CN[C@H](C(=O)O)C1CCCC1; Pro(4,4-F2) = O=C(O)[C@@H]1CC(F)(F)CN1; Hyp = O=C(O)[C@@H]1C[C@@H](O)CN1; NMeD = CN[C@@H](CC(=O)O)C(=O)O; NMeL = CN[C@@H](CC(C)C)C(=O)O; Morpholide = C1CN(*)CCO1; NMeA = CN[C@@H](C)C(=O)O; Ac5c = NC1(C(=O)O)CCCC1; Aze = O=C(O)[C@@H]1CCN1; Ac4c = NC1(C(=O)O)CCC1; NEtG = CCNCC(=O)O; Sar = CNCC(=O)O
measured_endpoint: Kd

Take a look at these entries with their results.
[
  {
    "molecule": "CC[C@H](C)[C@@H]1NC(=O)[C@@H]2CCCCCN2C(=O)C[C@@H](C(=O)N2CCOCC2)N(C)C(=O)[C@H](C2CCCC2)N(C)C(=O)C2(CCCC2)NC(=O)[C@@H]2CCCN2C(=O)[C@H](CCc2cc(F)c(C(F)(F)F)c(F)c2)NC(=O)CN(C)C(=O)[C@H](Cc2ccc(C(F)(F)F)cc2)N2CCCCC[C@@H](C2=O)N(C)C(=O)CN(C)C1=O",
    "Kd": "72 nM"
  },
  {
    "molecule": "CCCN1C(=O)[C@@H]2CCN2C(=O)CN(C)C(=O)[C@H]([C@@H](C)CC)NC(=O)[C@H](CC(C)C)N(C)C(=O)C[C@@H](C(=O)N2CCOCC2)NC(=O)[C@H](C2CCCC2)N(C)C(=O)C2(CCC2)NC(=O)[C@@H]2C[C@@H](OCC)CN2C(=O)[C@H](CCc2ccc(C(F)(F)F)c(Cl)c2)NC(=O)CN(C)C(=O)[C@@H]1Cc1ccc(C(F)(F)F)cc1 [PP0354] ([NMeL]I[Sar][Aze][NPrPhe(4-CF3)][Sar][hPhe(3-Cl-4-CF3)][Hyp](Et)[Ac4c][NMeGly(cPent)]D-Morpholide; lactam N-11)",
    "Kd": "0.44 nM"
  },
  {
    "molecule": "CCO[C@@H]1C[C@H]2C(=O)NC3(CCC3)C(=O)N(C)[C@@H](C3CCCC3)C(=O)N(C)[C@H](C(=O)N(C)C)CC(=O)N(C)[C@@H](CC3CC3)C(=O)N[C@@H]([C@@H](C)CC)C(=O)N(C)CC(=O)N(C)[C@H]3CCCCN(C3=O)[C@@H](Cc3ccc(C(F)(F)F)cc3)C(=O)N(C)CC(=O)N[C@@H](CCc3cc(F)c(C(F)(F)F)c(F)c3)C(=O)N2C1",
    "Kd": "0.021 nM"
  },
  {
    "molecule": "CCCN1C(=O)[C@@H]2CCN2C(=O)[C@H](C)N(C)C(=O)[C@H]([C@@H](C)CC)NC(=O)[C@H](CC(C)C)N(C)C(=O)C[C@@H](C(=O)N2CCOCC2)N(C)C(=O)[C@H](C2CCCC2)N(C)C(=O)C2(CCCC2)NC(=O)[C@@H]2COCCN2C(=O)[C@H](CCc2ccc(C(F)(F)F)c(Cl)c2)NC(=O)CN(C)C(=O)[C@@H]1Cc1ccc(C(F)(F)F)cc1 [PP0286] ([NMeL]I[NMeA][Aze][NPrPhe(4-CF3)][Sar][hPhe(3-Cl-4-CF3)][Morpholine(3S-CO)][Ac5c][NMeGly(cPent)][NMeD]-Morpholide; lactam N-11)",
    "Kd": "0.52 nM"
  },
  {
    "molecule": "CCCN1C(=O)CN(C)C(=O)CN(CC)C(=O)[C@H]([C@@H](C)CC)NC(=O)[C@H](CC(C)C)N(C)C(=O)C[C@@H](C(=O)N2CCOCC2)N(C)C(=O)[C@H](C2CCCC2)N(C)C(=O)C2(CCCC2)NC(=O)[C@@H]2C[C@@H](OC)CN2C(=O)[C@H](CCc2ccc(C(F)(F)F)c(Cl)c2)NC(=O)CN(C)C(=O)[C@@H]1Cc1ccc(C(F)(F)F)cc1 [PP0296] ([NMeL]I[NEtG][Sar][NPrPhe(4-CF3)][Sar][hPhe(3-Cl-4-CF3)][Hyp](Me)[Ac5c][NMeGly(cPent)][NMeD]-Morpholide; lactam N-11)",
    "Kd": "0.15 nM"
  }
]

What Kd value was documented for this molecule, CC[C@H](C)[C@@H]1NC(=O)[C@H](CC(C)C)N(C)C(=O)C[C@@H](C(=O)N2CCOCC2)N(C)C(=O)[C@H](C2CCCC2)N(C)C(=O)C2(CCCC2)NC(=O)[C@@H]2CCCN2C(=O)[C@H](CCc2ccc(C(F)(F)F)c(Cl)c2)NC(=O)CN(C)C(=O)[C@H](Cc2ccc(C)cc2)N(CC(C)C)C(=O)CN(C)C(=O)CN(C)C1=O [PP0063] ([NMeL]I[Sar][Sar][X18][Sar][hPhe(3-Cl-4-CF3)]P[Ac5c][NMeGly(cPent)][NMeD]-Morpholide; lactam N-11) ? 2.9 nM

Find the recorded Kd belonging to CCCN1C(=O)CN(C)C(=O)CN(CC)C(=O)[C@H]([C@@H](C)CC)NC(=O)[C@H](CC(C)C)N(C)C(=O)C[C@@H](C(=O)N2CCOCC2)NC(=O)[C@H](C2CCCC2)N(C)C(=O)C2(CCCC2)NC(=O)[C@@H]2CC(F)(F)CN2C(=O)[C@H](CCc2ccc(C(F)(F)F)c(Cl)c2)NC(=O)CN(C)C(=O)[C@@H]1Cc1ccc(C(F)(F)F)cc1 [PP0333] ([NMeL]I[NEtG][Sar][NPrPhe(4-CF3)][Sar][hPhe(3-Cl-4-CF3)][Pro(4,4-F2)][Ac5c][NMeGly(cPent)]D-Morpholide; lactam N-11) and report it. 2.4 nM

Requested read-out: Kd. Entry: C=CCCN1C(=O)[C@@H]2CCN2C(=O)[C@H](C)N(C)C(=O)[C@H]([C@@H](C)CC)NC(=O)[C@H](CC(C)C)N(C)C(=O)C[C@@H](C(=O)N2CCOCC2)N(C)C(=O)[C@H](C2CCCC2)N(C)C(=O)C2(CCCC2)NC(=O)[C@@H]2CCCN2C(=O)[C@H](CCc2ccc(C(F)(F)F)c(Cl)c2)NC(=O)CN(C)C(=O)[C@@H]1Cc1ccc(C)cc1 [PP0089] ([NMeL]I[NMeA][Aze][X30][Sar][hPhe(3-Cl-4-CF3)]P[Ac5c][NMeGly(cPent)][NMeD]-Morpholide; lactam N-11) 0.17 nM

Query (molecule): "CCC[C@H]1C(=O)N[C@@H]([C@@H](C)CC)C(=O)N(C)CC(=O)N(C)[C@H]2C/C=C\CCN(C2=O)[C@@H](Cc2ccc(C)cc2)C(=O)N(C)CC(=O)N[C@@H](CCc2cc(F)c(C(F)F)c(F)c2)C(=O)N2C[C@H](OCC)C[C@H]2C(=O)NC2(CC(C)(C)C2)C(=O)N(C)[C@@H](C2CCCC2)C(=O)N(C)[C@H](C(=O)N(C)C)CC(=O)N1C" ; field requested: Kd 0.49 nM
